Below: a set of entries, each annotated with reported melting point.

Known melting point results, listed for orientation:
compound_structure_string=NS(=O)(=O)c1ccc(NC(=S)N[C@@H]2O[C@H](CO)[C@@H](O)[C@H](O)[C@H]2NS(=O)(=O)c2cccc(Br)c2)cc1 quantity_measured="melting point" reported_measurement="172.9 to 174.7 °C"
compound_structure_string=NS(=O)(=O)c1ccc(NC(=S)N[C@@H]2O[C@H](CO)[C@@H](O)[C@H](O)[C@H]2NS(=O)(=O)c2ccc3ccccc3c2)cc1 quantity_measured="melting point" reported_measurement="182.7 to 184.6 °C"
compound_structure_string=NS(=O)(=O)c1ccc(NC(=S)N[C@@H]2O[C@H](CO)[C@@H](O)[C@H](O)[C@H]2NS(=O)(=O)c2ccc([N+](=O)[O-])cc2)cc1 quantity_measured="melting point" reported_measurement="174.7 to 176 °C"

Ask: Find the recorded melting point belonging to "NS(=O)(=O)c1ccc(NC(=S)N[C@@H]2O[C@H](CO)[C@@H](O)[C@H](O)[C@H]2NS(=O)(=O)c2ccc(Br)cc2)cc1" and report it.
Result: 174.1 to 176 °C

Ask: Find the recorded melting point belonging to "CCS(=O)(=O)N[C@@H]1[C@@H](O)[C@H](O)[C@@H](CO)O[C@H]1NC(=S)Nc1ccc(S(N)(=O)=O)cc1" and report it.
Result: 164.8 to 166.2 °C

Ask: Find the recorded melting point belonging to "NS(=O)(=O)c1ccc(NC(=S)N[C@@H]2O[C@H](CO)[C@@H](O)[C@H](O)[C@H]2NS(=O)(=O)c2cccc([N+](=O)[O-])c2)cc1" and report it.
Result: 177.3 to 179.2 °C

* * *

Target: Recombinant human carbonic anhydrase IX (Homo sapiens)
Construct: purchased Sino Biological Inc, Beijing, China
Assay: hCA IX inhibition, 4-nitrophenyl acetate (4-NPA) esterase assay
Assay type: biochemical
Details: mean ± standard error
Quantity measured: log10(IC50) (log10 of the value in nM)
Parameter value (number): base-10 log of IC50 in nM.

Known log10(IC50) results, listed for orientation:
molecule=N#Cc1ccc(S(=O)(=O)N[C@@H]2[C@@H](O)[C@H](O)[C@@H](CO)O[C@H]2NC(=S)Nc2ccc(S(N)(=O)=O)cc2)cc1 reported_measurement=1.34
molecule=NS(=O)(=O)c1ccc(NC(=S)N[C@@H]2O[C@H](CO)[C@@H](O)[C@H](O)[C@H]2NS(=O)(=O)c2ccc([N+](=O)[O-])cc2)cc1 reported_measurement=1.40
molecule="CCCS(=O)(=O)NC1C(NC(=S)Nc2ccc(S(N)(=O)=O)cc2)OC(CO)C(O)C1O (stereo not drawn)" reported_measurement=2.59

Ask: Find the recorded log10(IC50) belonging to "COc1ccc(S(=O)(=O)N[C@@H]2[C@@H](O)[C@H](O)[C@@H](CO)O[C@H]2NC(=S)Nc2ccc(S(N)(=O)=O)cc2)cc1" and report it.
Result: 1.38

Ask: Find the recorded log10(IC50) belonging to CC(=O)NC1C(NC(=S)Nc2ccc(S(N)(=O)=O)cc2)OC(COC(C)=O)C(OC(C)=O)C1OC(C)=O (stereo not drawn) and report it.
Result: 3.11

Ask: Find the recorded log10(IC50) belonging to "NS(=O)(=O)c1ccc(NC(=S)N[C@@H]2O[C@H](CO)[C@@H](O)[C@H](O)[C@H]2NS(=O)(=O)c2cc(F)cc(F)c2)cc1" and report it.
Result: 1.06

* * *

Below: a set of entries, each annotated with reported melting point.

Known melting point results, listed for orientation:
compound="CN(C)S(=O)(=O)N[C@@H]1[C@@H](O)[C@H](O)[C@@H](CO)O[C@H]1NC(=S)Nc1ccc(S(N)(=O)=O)cc1 [Compound 7q]" quantity_measured="melting point" reported_measurement="157.4 to 159.4 °C"
compound="NS(=O)(=O)c1ccc(NC(=S)N[C@@H]2O[C@H](CO)[C@@H](O)[C@H](O)[C@H]2NS(=O)(=O)c2ccccc2[N+](=O)[O-])cc1 [Compound 7k]" quantity_measured="melting point" reported_measurement="169.7 to 171.7 °C"
compound="CCCS(=O)(=O)NC1C(NC(=S)Nc2ccc(S(N)(=O)=O)cc2)OC(CO)C(O)C1O (stereo not drawn) [Compound 7p]" quantity_measured="melting point" reported_measurement="159.1 to 160.6 °C"
compound="CC(=O)NC1C(NC(=S)Nc2ccc(S(N)(=O)=O)cc2)OC(CO)C(O)C1O (stereo not drawn) [Compound 9b]" quantity_measured="melting point" reported_measurement="151.1 to 152.9 °C"
compound="NS(=O)(=O)c1ccc(NC(=S)N[C@@H]2O[C@H](CO)[C@@H](O)[C@H](O)[C@H]2NS(=O)(=O)c2cc(F)cc(F)c2)cc1 [Compound 7e]" quantity_measured="melting point" reported_measurement="164.4 to 165.2 °C"

Ask: Find the recorded melting point belonging to N#Cc1ccc(S(=O)(=O)N[C@@H]2[C@@H](O)[C@H](O)[C@@H](CO)O[C@H]2NC(=S)Nc2ccc(S(N)(=O)=O)cc2)cc1 [Compound 7m] and report it.
Result: 169 to 170.6 °C

* * *

Molecular target: Recombinant human carbonic anhydrase IX (Homo sapiens, UniProt Q16790)
Construct: purchased Sino Biological Inc, Beijing, China
Assay: hCA IX inhibition, 4-nitrophenyl acetate (4-NPA) esterase assay
Format: biochemical
Conditions: mean ± standard error
Quantity measured: pIC50
// pIC50 here means minus log10 of the molar concentration (mol/L)

Known pIC50 results, listed for orientation:
compound=NS(=O)(=O)c1ccc(NC(=S)N[C@@H]2O[C@H](CO)[C@@H](O)[C@H](O)[C@H]2NS(=O)(=O)c2ccc(Br)cc2)cc1 tgt="Recombinant human carbonic anhydrase IX (Homo sapiens, UniProt Q16790)" reported_measurement=7.67
compound=NS(=O)(=O)c1ccc(NC(=S)N[C@@H]2O[C@H](CO)[C@@H](O)[C@H](O)[C@H]2NS(=O)(=O)c2ccc(F)cc2)cc1 tgt="Recombinant human carbonic anhydrase IX (Homo sapiens, UniProt Q16790)" reported_measurement=7.59
compound="Cc1ccc(S(=O)(=O)NC2C(NC(=S)Nc3ccc(S(N)(=O)=O)cc3)OC(CO)C(O)C2O)cc1 (centres unmarked)" tgt="Recombinant human carbonic anhydrase IX (Homo sapiens, UniProt Q16790)" reported_measurement=7.66
compound=NS(=O)(=O)c1ccc(NC(=S)N[C@@H]2O[C@H](CO)[C@@H](O)[C@H](O)[C@H]2NS(=O)(=O)c2ccc3ccccc3c2)cc1 tgt="Recombinant human carbonic anhydrase IX (Homo sapiens, UniProt Q16790)" reported_measurement=7.61
compound=CN(C)S(=O)(=O)N[C@@H]1[C@@H](O)[C@H](O)[C@@H](CO)O[C@H]1NC(=S)Nc1ccc(S(N)(=O)=O)cc1 tgt="Recombinant human carbonic anhydrase IX (Homo sapiens, UniProt Q16790)" reported_measurement=7.14
compound=NS(=O)(=O)c1ccc(NC(=S)N[C@@H]2O[C@H](CO)[C@@H](O)[C@H](O)[C@H]2NS(=O)(=O)c2cccs2)cc1 tgt="Recombinant human carbonic anhydrase IX (Homo sapiens, UniProt Q16790)" reported_measurement=7.18
compound=NS(=O)(=O)c1ccc(NC(=S)N[C@@H]2O[C@H](CO)[C@@H](O)[C@H](O)[C@H]2NS(=O)(=O)c2ccc(Cl)cc2)cc1 tgt="Recombinant human carbonic anhydrase IX (Homo sapiens, UniProt Q16790)" reported_measurement=7.57
compound=NS(=O)(=O)c1ccc(NC(=S)N[C@@H]2O[C@H](CO)[C@@H](O)[C@H](O)[C@H]2NS(=O)(=O)c2cccc(Br)c2)cc1 tgt="Recombinant human carbonic anhydrase IX (Homo sapiens, UniProt Q16790)" reported_measurement=7.90
compound="CC(=O)NC1C(NC(=S)Nc2ccc(S(N)(=O)=O)cc2)OC(CO)C(O)C1O (centres unmarked)" tgt="Recombinant human carbonic anhydrase IX (Homo sapiens, UniProt Q16790)" reported_measurement=6.75
compound=Cc1ccccc1S(=O)(=O)N[C@@H]1[C@@H](O)[C@H](O)[C@@H](CO)O[C@H]1NC(=S)Nc1ccc(S(N)(=O)=O)cc1 tgt="Recombinant human carbonic anhydrase IX (Homo sapiens, UniProt Q16790)" reported_measurement=7.66

Ask: Find the recorded pIC50 belonging to "NS(=O)(=O)c1ccc(NC(=S)N[C@@H]2O[C@H](CO)[C@@H](O)[C@H](O)[C@H]2NS(=O)(=O)c2cccc([N+](=O)[O-])c2)cc1" and report it.
Result: 7.72

Ask: Find the recorded pIC50 belonging to NS(=O)(=O)c1ccc(NC(=S)NC2OC(CO)C(O)C(O)C2NS(=O)(=O)c2ccc(C(F)(F)F)cc2)cc1 (centres unmarked) and report it.
Result: 8.00

Ask: Find the recorded pIC50 belonging to "NS(=O)(=O)c1ccc(NC(=S)N[C@@H]2O[C@H](CO)[C@@H](O)[C@H](O)[C@H]2NS(=O)(=O)c2ccccc2[N+](=O)[O-])cc1" and report it.
Result: 7.81

Ask: Find the recorded pIC50 belonging to "CCS(=O)(=O)N[C@@H]1[C@@H](O)[C@H](O)[C@@H](CO)O[C@H]1NC(=S)Nc1ccc(S(N)(=O)=O)cc1" and report it.
Result: 7.17
